Source of measurements: ChEMBL document CHEMBL5236643

Target: Peroxisome proliferator-activated receptor gamma (Homo sapiens, UniProt P37231)
Sequence (P37231 whole entry, the tested form may be a part): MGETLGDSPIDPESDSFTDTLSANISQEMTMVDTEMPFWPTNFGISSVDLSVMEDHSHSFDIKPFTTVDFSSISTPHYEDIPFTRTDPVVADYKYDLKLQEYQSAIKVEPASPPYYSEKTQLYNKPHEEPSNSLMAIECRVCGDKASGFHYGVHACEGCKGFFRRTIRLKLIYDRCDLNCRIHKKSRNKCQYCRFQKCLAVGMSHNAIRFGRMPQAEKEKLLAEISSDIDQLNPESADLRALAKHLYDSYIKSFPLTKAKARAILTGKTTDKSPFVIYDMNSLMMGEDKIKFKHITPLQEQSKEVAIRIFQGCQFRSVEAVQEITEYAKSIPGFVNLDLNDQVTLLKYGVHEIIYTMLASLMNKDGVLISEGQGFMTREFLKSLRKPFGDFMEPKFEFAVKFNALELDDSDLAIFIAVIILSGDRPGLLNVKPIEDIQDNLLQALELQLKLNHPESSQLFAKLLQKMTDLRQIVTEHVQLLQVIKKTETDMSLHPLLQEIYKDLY
Experiment: Inverse agonist activity at GST tagged human PPARgamma LBD (231 to 505 residues) expressed in Escherichia coli BL21(DE3) assessed as recruitment of fluorescein labeled corepressor NCOR2 Smrt-ID2 peptide to PPARgamma LBD incubated for 24 hrs by LanthaScreen TR-FRET assay
pEC50: −log10 of the molar value.

# mol_smiles, target_entity, cmp, pEC50
measured = [
    ("Cc1cc(C(=O)NCc2ccccc2)cc(C(=O)Nc2ccccc2)c1Cl", "Peroxisome proliferator-activated receptor gamma (Homo sapiens, UniProt P37231)", "<", 4.48),
    ("O=C(NCc1ccccc1)c1cc(Cl)cc(C(=O)Nc2ccccc2)c1", "Peroxisome proliferator-activated receptor gamma (Homo sapiens, UniProt P37231)", "<", 5.30),
    ("O=C(NCc1ccccc1)c1ccc(F)c(C(=O)Nc2ccccc2)c1", "Peroxisome proliferator-activated receptor gamma (Homo sapiens, UniProt P37231)", "<", 5.30),
    ("Cc1ccccc1NC(=O)c1cc(C(=O)NCc2ccccc2)c(F)cc1Cl", "Peroxisome proliferator-activated receptor gamma (Homo sapiens, UniProt P37231)", "=", 7.16),
    ("Cc1cc(-c2nnco2)ccc1NC(=O)c1cc(C(=O)NCc2ccc(F)c(F)c2)c(F)cc1Cl", "Peroxisome proliferator-activated receptor gamma (Homo sapiens, UniProt P37231)", "=", 7.31),
]
